System: RXRa homodimer (NR concentration 180 nM)
Assay: PBM binding z-score (relative to random genomic background probes); higher = stronger binding; sequences stand for … in GC…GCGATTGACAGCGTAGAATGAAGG
Readout Name: PBM binding z-score

Qu. Provide only the value of recorded PBM binding z-score for `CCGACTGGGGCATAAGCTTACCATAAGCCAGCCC`
Ans. -0.312

Qu. Provide only the value of recorded PBM binding z-score for `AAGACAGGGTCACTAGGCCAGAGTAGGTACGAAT`
Ans. 5.58

Qu. Provide only the value of recorded PBM binding z-score for `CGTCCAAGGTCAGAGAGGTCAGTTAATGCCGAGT`
Ans. 5.63

Qu. Provide only the value of recorded PBM binding z-score for `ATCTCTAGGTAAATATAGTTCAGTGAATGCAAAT`
Ans. 0.623

Qu. Provide only the value of recorded PBM binding z-score for `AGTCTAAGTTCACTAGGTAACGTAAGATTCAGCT`
Ans. 2.31

Qu. Provide only the value of recorded PBM binding z-score for `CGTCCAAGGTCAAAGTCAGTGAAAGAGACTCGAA`
Ans. 5.95

Qu. Provide only the value of recorded PBM binding z-score for `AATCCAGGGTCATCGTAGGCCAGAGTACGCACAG`
Ans. 6.77

Qu. Provide only the value of recorded PBM binding z-score for `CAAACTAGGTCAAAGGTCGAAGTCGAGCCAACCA`
Ans. 8.7

Qu. Provide only the value of recorded PBM binding z-score for `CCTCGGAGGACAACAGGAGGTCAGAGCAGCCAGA`
Ans. 2.05

Qu. Provide only the value of recorded PBM binding z-score for `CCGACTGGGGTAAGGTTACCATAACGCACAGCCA`
Ans. 1.55

Qu. Provide only the value of recorded PBM binding z-score for `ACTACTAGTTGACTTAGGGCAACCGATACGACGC`
Ans. 0.508

Qu. Provide only the value of recorded PBM binding z-score for `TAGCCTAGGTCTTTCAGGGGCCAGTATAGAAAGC`
Ans. -0.286

Qu. Provide only the value of recorded PBM binding z-score for `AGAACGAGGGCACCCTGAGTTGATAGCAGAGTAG`
Ans. 1.14

Qu. Provide only the value of recorded PBM binding z-score for `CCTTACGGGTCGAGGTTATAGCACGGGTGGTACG`
Ans. 2.5

Qu. Provide only the value of recorded PBM binding z-score for `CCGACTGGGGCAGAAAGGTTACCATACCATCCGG`
Ans. 1.61

Qu. Provide only the value of recorded PBM binding z-score for `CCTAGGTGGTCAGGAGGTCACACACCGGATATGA`
Ans. 5.16

Qu. Provide only the value of recorded PBM binding z-score for `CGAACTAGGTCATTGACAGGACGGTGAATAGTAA`
Ans. 2.59

Qu. Provide only the value of recorded PBM binding z-score for `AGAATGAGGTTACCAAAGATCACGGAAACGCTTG`
Ans. 2.95

Qu. Provide only the value of recorded PBM binding z-score for `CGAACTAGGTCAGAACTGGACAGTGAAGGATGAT`
Ans. 1.3

Qu. Provide only the value of recorded PBM binding z-score for `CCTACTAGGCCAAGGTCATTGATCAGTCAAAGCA`
Ans. 3.64

Qu. Provide only the value of recorded PBM binding z-score for `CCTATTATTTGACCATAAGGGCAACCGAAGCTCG`
Ans. 0.762

Qu. Provide only the value of recorded PBM binding z-score for `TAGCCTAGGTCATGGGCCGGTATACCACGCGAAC`
Ans. 3.4

Qu. Provide only the value of recorded PBM binding z-score for `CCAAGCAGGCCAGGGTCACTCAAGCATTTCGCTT`
Ans. 3.22

Qu. Provide only the value of recorded PBM binding z-score for `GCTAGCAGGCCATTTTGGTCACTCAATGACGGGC`
Ans. -0.426

Qu. Provide only the value of recorded PBM binding z-score for `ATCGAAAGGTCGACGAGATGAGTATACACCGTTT`
Ans. 4.04

Qu. Provide only the value of recorded PBM binding z-score for `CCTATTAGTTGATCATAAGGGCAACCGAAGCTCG`
Ans. 0.308

Qu. Provide only the value of recorded PBM binding z-score for `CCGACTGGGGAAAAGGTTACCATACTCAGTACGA`
Ans. 1.86

Qu. Provide only the value of recorded PBM binding z-score for `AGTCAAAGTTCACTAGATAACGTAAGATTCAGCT`
Ans. 3.84

Qu. Provide only the value of recorded PBM binding z-score for `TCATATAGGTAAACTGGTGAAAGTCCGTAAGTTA`
Ans. 0.361

Qu. Provide only the value of recorded PBM binding z-score for `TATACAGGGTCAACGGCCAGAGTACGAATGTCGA`
Ans. 6.28

Qu. Provide only the value of recorded PBM binding z-score for `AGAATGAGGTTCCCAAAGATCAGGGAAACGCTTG`
Ans. 0.474

Qu. Provide only the value of recorded PBM binding z-score for `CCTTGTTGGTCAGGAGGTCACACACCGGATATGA`
Ans. 4.89

Qu. Provide only the value of recorded PBM binding z-score for `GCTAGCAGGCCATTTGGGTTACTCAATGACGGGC`
Ans. 0.0436

Qu. Provide only the value of recorded PBM binding z-score for `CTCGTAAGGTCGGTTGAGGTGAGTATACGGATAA`
Ans. 1.44

Qu. Provide only the value of recorded PBM binding z-score for `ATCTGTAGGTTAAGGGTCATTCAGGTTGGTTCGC`
Ans. 6.57

Qu. Provide only the value of recorded PBM binding z-score for `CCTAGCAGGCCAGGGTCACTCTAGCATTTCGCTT`
Ans. 2.88

Qu. Provide only the value of recorded PBM binding z-score for `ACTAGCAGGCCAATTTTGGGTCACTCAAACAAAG`
Ans. 0.898

Qu. Provide only the value of recorded PBM binding z-score for `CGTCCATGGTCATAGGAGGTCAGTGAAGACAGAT`
Ans. 2.18

Qu. Provide only the value of recorded PBM binding z-score for `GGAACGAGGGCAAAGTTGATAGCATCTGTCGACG`
Ans. 2.22

Qu. Provide only the value of recorded PBM binding z-score for `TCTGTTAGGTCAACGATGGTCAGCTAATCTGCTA`
Ans. 3.2

Qu. Provide only the value of recorded PBM binding z-score for `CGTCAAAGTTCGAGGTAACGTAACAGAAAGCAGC`
Ans. 1.64

Qu. Provide only the value of recorded PBM binding z-score for `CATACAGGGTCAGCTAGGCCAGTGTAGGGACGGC`
Ans. 3.89

Qu. Provide only the value of recorded PBM binding z-score for `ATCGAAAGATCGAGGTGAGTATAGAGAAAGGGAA`
Ans. 0.294

Qu. Provide only the value of recorded PBM binding z-score for `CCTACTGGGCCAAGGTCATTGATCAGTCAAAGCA`
Ans. 3.08

Qu. Provide only the value of recorded PBM binding z-score for `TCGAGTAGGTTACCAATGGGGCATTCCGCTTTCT`
Ans. 0.226

Qu. Provide only the value of recorded PBM binding z-score for `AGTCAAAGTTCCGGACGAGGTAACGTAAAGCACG`
Ans. 0.201

Qu. Provide only the value of recorded PBM binding z-score for `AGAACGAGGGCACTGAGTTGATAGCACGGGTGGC`
Ans. 1.02

Qu. Provide only the value of recorded PBM binding z-score for `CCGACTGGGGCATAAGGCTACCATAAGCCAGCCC`
Ans. -0.16

Qu. Provide only the value of recorded PBM binding z-score for `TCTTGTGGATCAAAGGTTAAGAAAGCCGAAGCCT`
Ans. 3.43

Qu. Provide only the value of recorded PBM binding z-score for `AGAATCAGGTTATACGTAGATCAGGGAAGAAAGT`
Ans. 0.757

Qu. Provide only the value of recorded PBM binding z-score for `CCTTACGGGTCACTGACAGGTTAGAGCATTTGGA`
Ans. 5.51
